B1: TPR t1 (parent)
chain: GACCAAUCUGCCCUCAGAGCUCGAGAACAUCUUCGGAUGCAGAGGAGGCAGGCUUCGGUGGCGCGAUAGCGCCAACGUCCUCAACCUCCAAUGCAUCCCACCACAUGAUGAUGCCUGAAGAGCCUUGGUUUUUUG

- Variants of: B1
- experiment.summary: polymerase ribozyme fitness, log enrichment relative to wild type (log ratio); higher = more active; in vitro selection for triplet polymerase activity
Label condition met when polymerase ribozyme fitness (log ratio) is at or above -2; otherwise label condition not met.

Worked examples follow.
Item U21A C123G G128C with polymerase ribozyme fitness (log ratio) of -2 or above?
condition met

Has C11G C70G G77U A103C A121C U132A a recorded polymerase ribozyme fitness (log ratio) greater than or equal to -2?
condition not met

Can A50G C72G C79A U132C be said to have polymerase ribozyme fitness (log ratio) at or above -2?
condition met

Hi team, for A16U G52U G69A C76U U78C A121C , is the recorded polymerase ribozyme fitness (log ratio) at or above -2?
condition not met

For this variant, is measured polymerase ribozyme fitness (log ratio) -2 or higher? A29G C70G G120A
condition not met

---
hey, is polymerase ribozyme fitness (log ratio) for this one >= -2? A26C C34U G36U C72A
condition not met

Is the recorded value of polymerase ribozyme fitness (log ratio) equal to or greater than -2 for this variant? C11A A27C
condition not met

Tell me whether polymerase ribozyme fitness (log ratio) is at least -2 here: C15U G35C G69U
condition not met

Is the recorded value of polymerase ribozyme fitness (log ratio) equal to or greater than -2 for this variant? G69U U78C A84G G122A G128A
condition not met

Answer whether polymerase ribozyme fitness (log ratio) of A18U A41C is greater than or equal to -2.
condition not met

Does polymerase ribozyme fitness (log ratio) meet or surpass -2 for G10U A37U G52U C56U C73G U116G ?
condition not met
